Test system: Puccinia triticina
Assay: Wheat brown rust (PUCCRT) disease control on wheat seedlings
Format: in vivo
Settings: low volume application, 125.1 g/H, 3 Day Curative
quantity name: PUCCRT 3DC, LV activity at 125.1 g/H (% Control rating)

{"smiles": "CC[C@H](NC(=O)c1nccc(OC)c1OCOC(C)=O)C(=O)O[C@@H](C)[C@H](Oc1cc(F)cc(Cl)c1)c1ccccc1", "readout value": "B (≤ 80)"}
{"smiles": "CCCOC[C@@H](Oc1ccccc1)[C@H](C)OC(=O)[C@H](CC)NC(=O)c1nccc(OC)c1OC(C)=O", "readout value": "A (> 80)"}
{"smiles": "COc1ccnc(C(=O)N[C@H](C(=O)O[C@@H](C)[C@H](Oc2cccc3ccccc23)C(C)C)C(C)C)c1OCOC(C)=O", "readout value": "A (> 80)"}
{"smiles": "CC[C@H](Cc1ccc(F)cc1)[C@@H](Oc1ccccc1)[C@H](C)OC(=O)[C@H](C)NC(=O)c1nccc(OC)c1OCOC(C)=O", "readout value": "A (> 80)"}
{"smiles": "COc1ccnc(C(=O)N[C@@H](C)C(=O)O[C@@H](C)[C@H](Oc2ccc(F)cc2)C(C)C)c1OCOC(C)=O", "readout value": "A (> 80)"}
{"smiles": "CC[C@H](Cc1ccc(OC)cc1)[C@@H](Oc1ccccc1)[C@H](C)OC(=O)[C@H](C)NC(=O)c1nccc(OC)c1OC(=O)C(C)C", "readout value": "B (≤ 80)"}
{"smiles": "CC[C@H](NC(=O)c1nccc(OC)c1OC(C)=O)C(=O)O[C@@H](C)[C@H](Oc1cc(F)cc(Cl)c1)c1ccccc1", "readout value": "B (≤ 80)"}
{"smiles": "COc1ccnc(C(=O)N[C@@H](C)C(=O)O[C@@H](C)[C@H](Oc2cc(F)ccc2F)C(C)C)c1OCOC(C)=O", "readout value": "A (> 80)"}

---

System: Puccinia triticina
Test: Wheat brown rust (PUCCRT) disease control on wheat seedlings
Format: in vivo
Settings: low volume application, 125.1 g/H, 1 Day Protectant
quantity name: PUCCRT 1DP, LV activity at 125.1 g/H (% Control rating)

{"smiles": "COc1ccnc(C(=O)N[C@@H](C)C(=O)O[C@@H](C)[C@@H](COc2ccccc2)Oc2ccccc2)c1OC(C)=O", "readout value": "A (> 80)"}
{"smiles": "C=CC[C@@H](OCc1ccccc1)[C@H](C)OC(=O)[C@H](C)NC(=O)c1nccc(OC)c1OCOC(=O)COCC", "readout value": "A (> 80)"}
{"smiles": "COc1ccnc(C(=O)N[C@H](C)C(=O)O[C@@H](C)[C@@H](Oc2ccccc2)C(C)C)c1OCOC(C)=O", "readout value": "D"}
{"smiles": "CCC(CC)[C@@H](Oc1cc(F)cc(Cl)c1)[C@H](C)OC(=O)[C@H](C)NC(=O)c1nccc(OC)c1OC(C)=O", "readout value": "A (> 80)"}
{"smiles": "CCC(CC)[C@@H](OCC(C)C)[C@H](C)OC(=O)[C@H](C)NC(=O)c1nccc(OC)c1OCOC(C)=O", "readout value": "A (> 80)"}

---

System: Alternaria solani
Assay: Tomato early blight (ALTESO) disease control
Type: in vivo
Design: key: A: > 80; B: ≤ 80; C: Not Tested; D: No Activity Observed in the Reported Assay
Conditions: 100 ppm, 1 Day Protectant

{"compound": "COc1ccnc(C(=O)N[C@@H](C)C(=O)O[C@@H](C)[C@@H](CC(C)C)Oc2ccccc2)c1OCOC(=O)C(C)C [Cmpd 1101]", "measurement target": "Alternaria solani", "ALTESO disease control, 1DP": "D"}
{"compound": "CCC[C@@H](Oc1ccccc1)[C@H](C)OC(=O)[C@H](C)NC(=O)c1nccc(OC)c1OCOC(C)=O [Cmpd 699]", "measurement target": "Alternaria solani", "ALTESO disease control, 1DP": "B (≤ 80)"}
{"compound": "COc1ccnc(C(=O)N[C@@H](C)C(=O)O[C@@H](C)[C@H](Oc2ccccc2Cl)c2ccccc2)c1OC(C)=O [Cmpd 640]", "measurement target": "Alternaria solani", "ALTESO disease control, 1DP": "B (≤ 80)"}
{"compound": "CC[C@@H](CCOC)[C@@H](Oc1ccccc1)[C@H](C)OC(=O)[C@H](C)NC(=O)c1nccc(OC)c1OC(C)=O [Cmpd 482]", "measurement target": "Alternaria solani", "ALTESO disease control, 1DP": "B (≤ 80)"}
